Origin of values: patent US20230346820A1

Tested on: SARS-CoV-2
condition set: Table 4
So I've got a bunch of molecules here, and I need their Calu3 SI CC50/CoV-2 EC50 values.
The reply should be a number, written without any unit.

stdin: Could you tell me which Calu3 SI CC50/CoV-2 EC50 is on file for CSc1ncnc2c1ncn2[C@@H]1O[C@H](CO)[C@@H](O)[C@H]1O [6-Methyl mercaptopurineriboside] ?
stdout: 5.80

stdin: Would you kindly share the measured Calu3 SI CC50/CoV-2 EC50 for Nc1nccc2c1ncn2C1C=C(CO)C(O)C1O (stereo not drawn) ?
stdout: 182.24

stdin: Quick one: Calu3 SI CC50/CoV-2 EC50 of Nc1ncnc2c1ccn2[C@@H]1O[C@H](CO)[C@@H](O)[C@H]1O ?
stdout: 9.68

stdin: Need Calu3 SI CC50/CoV-2 EC50 of CCCCCCCCCCCCCC(=O)O[C@@H]1[C@@H](C)[C@@]2(O)[C@@H](C=C(CO)C[C@]3(O)C(=O)C(C)=C[C@@H]23)[C@@H]2C(C)(C)[C@]12OC(C)=O [Phorbol 12-myristate 13-acetate] , thanks.
stdout: 1384.37

stdin: Reported Calu3 SI CC50/CoV-2 EC50 for CC1OC(O[C@H]2CC[C@@]3(C=O)[C@H](CC[C@@H]4[C@@H]3CC[C@]3(C)[C@@H](C5=CC(=O)OC5)CC[C@]43O)C2)C(O)C(O)C1O (stereo partly drawn) [Peruvoside (analog)] : what is it?
stdout: 5.61

stdin: Would you mind telling me what Calu3 SI CC50/CoV-2 EC50 value was observed for COC(=O)[C@@]12OC[C@]34[C@H]([C@@H](O)[C@@H]1O)[C@@]1(C)CC(=O)C(O)=C(C)[C@@H]1C[C@H]3OC(=O)[C@H](OC(=O)/C=C(\C)C(C)C)[C@@H]24 [Bruceantin] ?
stdout: 50.22

stdin: Consider the molecule Cn1c(C#N)ccc1-c1ccc2c(c1)C(C)(C)OC(=S)N2 and give its measured Calu3 SI CC50/CoV-2 EC50.
stdout: 7.99

stdin: // query Calu3 SI CC50/CoV-2 EC50 value for entry CC(=O)OC[C@H]1O[C@@H]([S-])[C@H](OC(C)=O)[C@@H](OC(C)=O)[C@@H]1OC(C)=O.CCP(CC)CC.[Au+]
stdout: 7.87

stdin: For COC(=O)[C@]12CCC(C)(C)C[C@H]1[C@H]1C(=O)C=C3[C@@]4(C)C=C(C#N)C(=O)C(C)(C)[C@@H]4CC[C@@]3(C)[C@]1(C)CC2 , what is its reported Calu3 SI CC50/CoV-2 EC50?
stdout: 38.47

stdin: Form field: reported Calu3 SI CC50/CoV-2 EC50 of Sc1ncnc2nc[nH]c12
stdout: 6.95

----------
test method notes: in vitro
condition set: human, HeLa-ACE2 Uninfected Tox CC50 [μM], Table 4; aggregated data, Geomean, n = 3
Where a name gives a salt, the structure may show the parent alone.
Hi! Could you tag entries with CC50 below 3 µM as T, and those at or above as F? Much appreciated.

stdin: In the record for C=Cc1cc(C(=O)Nc2ccc(C(=N)N)cc2)c(-c2ccc(C(=O)NCC3CC3)nc2C(=O)O)cc1OC [Avoralstat] , is CC50 less than 3 µM?
stdout: F

stdin: For this compound, is CC50 lower than 3 µM? N#Cc1cccc(C(C(=O)NCC(c2ccccc2)c2ccccc2)N(CCc2c[nH]cn2)C(=O)c2ccccc2C(=O)c2ccccc2)c1 (stereo not drawn) [GENZ-29155]
stdout: F

stdin: Quick check: CC50 of COC1CC(OC2CCC3(C=O)[C@H]4CCC5(C)C(C6=CC(=O)OC6)CCC5(O)[C@@H]4CCC3(O)C2)OC(C)C1O (stereo partly drawn) [CYMARINE] under 3 µM?
stdout: T

stdin: Problem: For the compound CC[C@@H]1/C=C/C=C/C[C@H](C)[C@@H](O)[C@](C)(O)C(=O)[C@H](C)[C@@H](O)[C@H](C)C(=O)[C@H](C)[C@@H](O)[C@H](C)/C=C/C(=O)O[C@H]2[C@@H](C)[C@@H](CC1)O[C@@]1(CC[C@@H](C)[C@@H](C[C@H](C)O)O1)[C@@H]2C [OLIGOMYCINA] , is CC50 under 3 µM?
stdout: F

stdin: Item CC(=O)O[C@H]1C[C@H](O[C@H]2[C@@H](O)C[C@H](O[C@H]3[C@@H](O)C[C@H](O[C@H]4CCC5(C)[C@H](CC[C@@H]6[C@@H]5CCC5(C)[C@@H](C7=CC(=O)OC7)[C@@H](O)CC65O)C4)O[C@@H]3C)O[C@@H]2C)O[C@H](C)[C@H]1O[C@@H]1O[C@H](CO)[C@@H](O)[C@H](O)[C@H]1O (stereo partly drawn) [[…]] : CC50 beneath 3 µM, strictly?
stdout: T

stdin: Please let me know if CC1OC(O[C@H]2CC[C@@]3(C=O)[C@H](CC[C@@H]4[C@@H]3CC[C@]3(C)[C@@H](C5=CC(=O)OC5)CC[C@]43O)C2)C(O)C(O)C1O (stereo partly drawn) [Peruvoside (analog)] shows CC50 below 3 µM.
stdout: T

stdin: Problem: For the compound O=C(c1ccccc1)c1cccc(NC(=O)c2ccn3c2CSC3c2cccnc2)c1 (stereo not drawn) [TULOPAFANT] , is CC50 under 3 µM?
stdout: F

stdin: Hello, is CC50 of the following compound strictly smaller than 3 µM? COC(=O)[C@@]12OC[C@]34[C@H]([C@@H](O)[C@@H]1O)[C@@]1(C)CC(=O)C(O)=C(C)[C@@H]1C[C@H]3OC(=O)[C@H](OC(=O)/C=C(\C)C(C)C)[C@@H]24 [Bruceantin]
stdout: T

stdin: Answer whether the compound O=c1[nH]c(=O)n([C@@H]2O[C@H](CO)[C@@H](O)[C@H]2O)cc1F [Analog of OGT-719] has CC50 strictly less than 3 µM
stdout: T

stdin: Item CC(=N)N1CCC(Oc2ccc(N(Cc3ccc4ccc(C(=N)N)cc4c3)S(=O)(=O)CC(=O)O)cc2)CC1 [YM 60828] : CC50 beneath 3 µM, strictly?
stdout: F

stdin: Take the compound CC(=O)N1C[C@H](O)C[C@H]1C(=O)N[C@@H](CCCNC(=N)N)C(=O)c1nc2ccccc2s1 [RWJ-56423] and say whether its CC50 is less than 3 µM.
stdout: F

stdin: Record CC(C)(C)c1ccc(CSc2cnn(C(C)(C)C)c(=O)c2Cl)cc1 [PYRIDABEN] : is its CC50 strictly below 3 µM?
stdout: F

stdin: Please determine if CSc1ccc(CN2CCCC(Nc3ccc4[nH]ncc4c3)C2)cc1 (stereo not drawn) [INS-117548] is below 3 µM in terms of CC50.
stdout: F

stdin: Is 3 µM strictly greater than the compound's reported CC50? compound: COCc1c(C(C)C)nc(C(C)C)c(/C=C/[C@@H](O)C[C@@H](O)CC(=O)O)c1-c1ccc(F)cc1 [cerivastatin (sodium salt)]
stdout: T

stdin: Just wondering, is CC50 of O=C(Nc1ccc(Cl)c(S(=O)(=O)N2CCNCC2)c1O)Nc1cccc(F)c1Cl [Elubrixitosylate] below 3 µM?
stdout: F

stdin: Quick check: does CC(C)(O)c1ccccc1-c1ccc2[nH]c(/C=C/c3ccc(C(F)(F)F)cc3)nc2c1 [Mavatrep] have CC50 under 3 µM?
stdout: F

stdin: Regarding CCCCCCCC/C=C/CCCCCCCC(=O)OC[C@H]1O[C@@H](n2ccc(N)nc2=O)C(F)(F)[C@@H]1O [Gemcitabine elaidate] , kindly confirm whether its CC50 is beneath 3 µM.
stdout: F

stdin: Below 3 µM on CC50? Entry Sc1ncnc2nc[nH]c12 [Mercaptopurine]
stdout: F

stdin: Say whether its CC50 is strictly beneath 3 µM. Entry: C#C[C@]1(O)CC[C@H]2[C@@H]3CCc4cc(OS(=O)(=O)C(C)C)ccc4[C@H]3CC[C@@]21C [ethinyl estradiol sulfonate]
stdout: F

stdin: Does the reported CC50 of CNC(=O)n1ccc2cc(Oc3ccnc(NC(=O)c4ccc(C5CCN(CCO)CC5)cc4)c3)c(OCCOC)cc21 [E-7090] stay below 3 µM?
stdout: F

stdin: Is CC50 strictly under 3 µM for the entry CC(=O)O[C@H]1C[C@H](O[C@H]2[C@@H](O)C[C@H](O[C@H]3[C@@H](O)C[C@H](O[C@H]4CC[C@@]5(C)[C@H](CC[C@@H]6[C@@H]5C[C@@H](O)[C@]5(C)[C@@H](C7=CC(=O)OC7)CC[C@]65O)C4)O[C@@H]3C)O[C@@H]2C)O[C@H](C)[C@H]1O[C@@H]1O[C@H](CO)[C@@H](O)[C@H](O)[C@H]1O [LANATOSIDE] ?
stdout: T

stdin: API: query returns whether the compound falls strictly under 3 µM in CC50. Query: COC(=O)[C@]12CCC(C)(C)C[C@H]1[C@H]1C(=O)C=C3[C@@]4(C)C=C(C#N)C(=O)C(C)(C)[C@@H]4CC[C@@]3(C)[C@]1(C)CC2 [Bardoxolone Methyl]
stdout: F

stdin: State whether 3 µM exceeds CC50 recorded for NC(N)=Nc1ncc(Cl)c2ccc(-c3cccc(C(=O)O)c3)cc12 [UK-356202] .
stdout: F

stdin: Here's an entry: CC[C@H]1CN2CCc3cc(OC)c(OC)cc3[C@@H]2C[C@@H]1C[C@H]1NCCc2cc(OC)c(OC)cc21 [Emetine] . Is its CC50 below 3 µM?
stdout: T
